molecular target: Cyclin-dependent kinase 2/cyclin E (Homo sapiens, UniProt P24941); experiment: Inhibition of cyclin dependent kinase 2-cyclin E (n=4); format: protein-complex assay
Reported metric: IC50 (nM)
The answer is to be given in nM; state only the numeric part.

q: What value of IC50 has been recorded for this entry: "C[C@H](C(=O)Nc1cc(C2CC2)[nH]n1)c1ccc(N2CCOC2=O)cc1"
a: 37

* * *

assay: physchem; conditions: aqueous buffer, pH 7
Description: In vitro solubility in rat hepatocytes; buffer pH 7
Quick reference for solubility among some compounds
The answer is to be given in µM; state only the numeric part.

As a guide, the following entries are already answered.
q: What value of solubility has been recorded for this entry: CC(C(=O)Nc1cc(C2CC2)[nH]n1)c1ccc(N2CCOC2=O)cc1 (centres undefined)
a: 222

q: What value of solubility has been recorded for this entry: CC(C(=O)Nc1cc(C2CC2)[nH]n1)c1ccc(N2CCNC2=O)cc1 (centres undefined)
a: 224

Next:
q: What value of solubility has been recorded for this entry: CC(C(=O)Nc1cc(C2CC2)[nH]n1)c1ccc(N2C(=O)CCC2C)cc1 (centres undefined)
a: 222
